# system_under_test: human full length PIK3KA H1047R mutant (p110α/p85α complex) (Homo sapiens, UniProt P42336, H1047R)
# Construct: Recombinant, catalytically active human full length PIK3KA Wild-type and H1047R mutant were purchased as 1:1 complex; 6xHis (N); purchased EMD Millipore Sigma 14-792M
# Sequence (P42336 whole entry H1047R): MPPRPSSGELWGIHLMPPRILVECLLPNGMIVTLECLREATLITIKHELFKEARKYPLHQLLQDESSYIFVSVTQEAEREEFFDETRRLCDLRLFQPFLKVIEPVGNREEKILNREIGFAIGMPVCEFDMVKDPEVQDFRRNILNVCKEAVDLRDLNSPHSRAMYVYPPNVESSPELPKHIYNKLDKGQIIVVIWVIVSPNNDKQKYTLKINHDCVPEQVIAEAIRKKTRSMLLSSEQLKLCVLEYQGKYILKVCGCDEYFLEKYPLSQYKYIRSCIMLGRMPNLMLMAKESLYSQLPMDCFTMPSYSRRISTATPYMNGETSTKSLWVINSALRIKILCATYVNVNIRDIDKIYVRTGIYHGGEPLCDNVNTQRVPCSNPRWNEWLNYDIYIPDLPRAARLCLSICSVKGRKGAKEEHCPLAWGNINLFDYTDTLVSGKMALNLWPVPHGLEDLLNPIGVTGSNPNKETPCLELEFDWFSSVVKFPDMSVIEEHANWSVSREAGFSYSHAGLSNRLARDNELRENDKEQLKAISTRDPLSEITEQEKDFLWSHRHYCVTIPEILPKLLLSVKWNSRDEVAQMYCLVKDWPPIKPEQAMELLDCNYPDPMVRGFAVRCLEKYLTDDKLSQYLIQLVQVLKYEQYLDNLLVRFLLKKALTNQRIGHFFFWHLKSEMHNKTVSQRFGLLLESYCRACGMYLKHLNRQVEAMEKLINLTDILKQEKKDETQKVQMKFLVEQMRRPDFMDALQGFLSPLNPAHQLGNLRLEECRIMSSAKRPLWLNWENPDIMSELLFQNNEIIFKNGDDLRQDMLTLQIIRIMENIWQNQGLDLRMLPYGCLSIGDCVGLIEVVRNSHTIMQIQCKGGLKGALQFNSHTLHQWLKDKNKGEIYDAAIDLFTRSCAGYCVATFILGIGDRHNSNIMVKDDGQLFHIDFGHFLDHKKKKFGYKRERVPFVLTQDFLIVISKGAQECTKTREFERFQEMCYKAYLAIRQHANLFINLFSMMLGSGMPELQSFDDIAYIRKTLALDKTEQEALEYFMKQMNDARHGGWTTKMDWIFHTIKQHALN
# Sequence (P27986 whole entry partner): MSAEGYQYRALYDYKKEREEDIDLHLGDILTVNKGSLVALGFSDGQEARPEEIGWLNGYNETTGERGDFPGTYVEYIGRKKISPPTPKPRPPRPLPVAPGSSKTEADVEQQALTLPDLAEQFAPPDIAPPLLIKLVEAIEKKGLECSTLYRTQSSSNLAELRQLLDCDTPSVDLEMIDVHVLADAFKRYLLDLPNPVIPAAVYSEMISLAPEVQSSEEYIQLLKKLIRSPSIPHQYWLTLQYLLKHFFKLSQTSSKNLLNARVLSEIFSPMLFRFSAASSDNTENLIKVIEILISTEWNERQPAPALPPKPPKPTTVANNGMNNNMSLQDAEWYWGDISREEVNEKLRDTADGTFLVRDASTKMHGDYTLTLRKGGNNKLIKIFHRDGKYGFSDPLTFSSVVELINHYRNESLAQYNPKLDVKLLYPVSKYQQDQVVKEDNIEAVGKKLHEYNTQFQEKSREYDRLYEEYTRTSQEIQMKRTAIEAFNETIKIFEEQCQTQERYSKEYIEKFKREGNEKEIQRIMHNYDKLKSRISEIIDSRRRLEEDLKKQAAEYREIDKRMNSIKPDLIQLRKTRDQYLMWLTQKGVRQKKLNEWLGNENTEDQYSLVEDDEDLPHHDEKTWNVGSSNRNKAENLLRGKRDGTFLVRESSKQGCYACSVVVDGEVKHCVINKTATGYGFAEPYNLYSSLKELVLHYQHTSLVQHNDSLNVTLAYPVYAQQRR
# assay_protocol: PI3K-alpha kinase (PIK3CA) biochemical activity, H1047R mutant, ADP-Glo
# assay_context: PI3K-α (PIK3CA) biochemical, H1047R mutant, Soy PI lipid substrate
pIC50: −log10 of the molar value.
experimental_readout: pIC50

Check out these entries, answers already filled in.
C[C@@H](Nc1ccc(Cl)nc1C(=O)O)c1cc(C(F)(F)F)cc2c(=O)cc(-c3ccc(F)c(F)c3)oc12 [Example 88] : > 6.30
Cc1cc([C@@H](C)Nc2ccccc2C(=O)O)c2oc(-c3ccccc3)c(-c3cnoc3)c(=O)c2c1 [Example 85] : > 6.30
Cc1cc(C(C)Nc2ccccc2C(=O)O)c2oc(-c3ccc(C4(C#N)CC4)cc3)cc(=O)c2c1 (single isomer, unassigned; isomer 1) [Example 52] : 5.00 to 5.30
CC(=O)c1c(-c2ccccc2)oc2c([C@@H](C)Nc3ccccc3C(=O)O)cc(C)cc2c1=O [Example 119] : > 6.30
Cc1cc([C@@H](C)Nc2ccccc2C(=O)O)c2oc(-c3ccc(F)c(F)c3)c(C)c(=O)c2c1 [Example 78] : > 6.30

Quick request: pIC50 for each listed item, please.
1. Cc1cc(C(C)Nc2ccccc2C(=O)O)c2oc(-c3cccc(-c4cnn(C)c4)c3)cc(=O)c2c1.O=C(O)C(F)(F)F (centres unmarked) [Example 13]
2. Cc1cc(C(C)Nc2cccc(F)c2C(=O)O)c2oc(-c3cccc(F)c3)c(C)c(=O)c2c1 (single isomer, unassigned; isomer 2) [Example 106]

A.
> 6.30
5.30 to 6.00

* * *

Would you kindly list IC50 for each of these molecules?
# system_under_test: human full length PIK3KA H1047R mutant (p110α/p85α complex) (Homo sapiens, UniProt P42336, H1047R)
# Construct: Recombinant, catalytically active human full length PIK3KA Wild-type and H1047R mutant were purchased as 1:1 complex; 6xHis (N); purchased EMD Millipore Sigma 14-792M
# assay_protocol: PI3K-alpha kinase (PIK3CA) biochemical activity, H1047R mutant, ADP-Glo
# assay_context: PI3K-α (PIK3CA) biochemical, H1047R mutant, Soy PI lipid substrate

Each molecule below has a recorded value; state its IC50.
1. Cc1cc([C@@H](C)Nc2ccc(C)nc2C(=O)O)c2oc(-c3cccc(C#N)c3)c(C)c(=O)c2c1
2. Cc1cc([C@@H](C)Nc2ccccc2C(=O)O)c2oc(-c3ccc(-c4cn[nH]c4)cc3)cc(=O)c2c1
3. Cc1cc([C@@H](C)Nc2ccc(Cl)cc2C(=O)O)c2oc(-c3ccccc3F)c(C)c(=O)c2c1
4. COC(=O)c1ccc(-c2oc3c([C@@H](C)Nc4ccccc4C(=O)O)cc(C)cc3c(=O)c2C)cc1
5. Cc1cc(C(C)Nc2ccccc2C(=O)O)c2oc(-c3cccc(C(C)(C)C#N)c3)cc(=O)c2c1 (single isomer, unassigned; isomer 2) [Example 5]

A.
1: < 0.5 µM; 2: 0.5 to 1 µM; 3: 0.5 to 1 µM; 4: < 0.5 µM; 5: < 0.5 µM
